Tested on: OVCAR-5 ovarian
Test: NCI tumour cell line growth inhibition, 48 h
Parameter: TGI

Use these answered entries as a reference point.
query: Requested field: TGI. Item: Ic1ncnc2c1ncn2C1CCCO1 (stereo unspecified)
result: > 100 µM

query: Please do the same for N=c1oc2ccc([N+](=O)[O-])cc2cc1C(=O)NCc1ccccc1 as well.
result: 96 µM

Continuing:
query: Requested field: TGI. Item: NC(=O)C(=Cc1ccc(C(O)P(=O)(O)O)cc1)C(N)=O (stereo unspecified)
result: > 100 µM

query: Please do the same for Cn1ccnc1CC(C)(O)c1ccccc1 (stereo unspecified) as well.
result: > 100 µM

query: Please do the same for CC(C)CS(=O)(=O)/C(=C(\c1ccc(Br)cc1)S(=O)(=O)CC(C)C)c1ccc(Br)cc1 as well.
result: > 100 µM

query: Please do the same for COc1ccc(NC(=O)C(=O)C(C(=O)c2ccccc2)C2OC(=O)c3ccccc32)c([N+](=O)[O-])c1 (stereo unspecified) as well.
result: > 100 µM

The reported measurements were obtained from PubChem BioAssay (NCI).
